Target: active phosphorylated p38α MAPK (Homo sapiens (Human))
Assay: Fluorescence polarisation (FP) binding assay, active enzyme
Settings: read-out: Ki to active p38α MAPK
pKi: −log10 of the molar value.
measure: pKi

| item.smiles | measure | observed.value |
| --- | --- | --- |
| NCCC#Cc1cc(-c2ccncc2)c(-c2ccc(F)cc2)s1 | pKi | 6.72 |
| Nc1nc(F)c(F)c(-c2cc(-c3ccncc3)c(-c3ccc(F)cc3)s2)c1F | pKi | 6.70 |

I. Nc1nc(N)c(F)c(-c2cc(-c3ccncc3)c(-c3ccc(F)cc3)s2)c1F
II. Fc1ccc(-c2sc(-c3c(F)c(F)nc(F)c3F)cc2-c2ccncc2)cc1
Of the pair I and II , name the member with the lesser recorded pKi. Write the label of whichever entry you select. II

----------
Molecular target: p38α MAPK (Homo sapiens (Human))
Sequence (Q16539 whole entry): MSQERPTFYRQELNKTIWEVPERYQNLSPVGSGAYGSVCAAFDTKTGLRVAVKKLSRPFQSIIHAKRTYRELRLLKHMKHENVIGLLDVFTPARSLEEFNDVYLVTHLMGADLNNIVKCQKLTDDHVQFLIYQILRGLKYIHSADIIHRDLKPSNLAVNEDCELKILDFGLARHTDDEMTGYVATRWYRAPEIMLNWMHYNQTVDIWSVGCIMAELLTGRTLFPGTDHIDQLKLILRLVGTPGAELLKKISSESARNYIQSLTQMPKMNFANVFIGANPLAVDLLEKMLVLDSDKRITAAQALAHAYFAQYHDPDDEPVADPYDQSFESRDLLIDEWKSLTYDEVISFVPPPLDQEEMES
Assay: Radioactive (33P-labelled ATP) filter binding assay of p38α MAPK activity
Format: biochemical
Conditions: Table 1; average of two experiments; read-out: IC50 (μM, mean)
measure: IC50 (µM)

| molecule | observed.value |
| --- | --- |
| OCCC#Cc1sc(-c2ccc(F)cc2)c(-c2ccncc2)c1CCCc1ccccc1 | 0.18 |
| OC(CCc1ccccc1)c1csc(-c2ccc(F)cc2)c1-c1ccncc1 (stereo not shown) | 0.26 |

a. Fc1ccc(-c2scc(CCCc3ccccc3)c2-c2ccncc2)cc1
b. OCCC#Cc1sc(-c2ccc(F)cc2)c(-c2ccncc2)c1C(O)CCc1ccccc1 (stereo not shown)
Of the pair a and b , name the member with the lesser recorded IC50. Write the label of whichever entry you select. a
(a: 0.27 µM, b: 4.72 µM)

----------
Assay: In vitro metabolic stability, human liver microsomes
Type: in vitro ADME
Settings: NADPH-dependent, read-out: Apparent Degradation half-life
Catalogue of half-life readings, one per entry.
Unit min implied. Number only.

| molecule | unit.annotation | observed.value |
| --- | --- | --- |
| OCCC#Cc1cc(-c2ccncc2)c(-c2ccc(F)cc2)s1 [Compound 4.5] | min | 71 |

Now look at this one.
Value lookup for half-life; key = OCCC#Cc1sc(-c2ccc(F)cc2)c(-c2ccncc2)c1CCCc1ccccc1 [Compound 4.1] 8

----------
Target: inactive non-phosphorylated p38α MAPK (Homo sapiens (Human), UniProt Q16539)
Assay: Fluorescence polarisation (FP) binding assay, inactive enzyme
Settings: Table 6; read-out: Ki ± SEM (μM) to inactive p38α
measure: Ki (µM)

Below: 10 compounds and their reported Ki.
| compound | measure | unit.annotation | observed.value |
| --- | --- | --- | --- |
| OCCC#Cc1sc(-c2ccc(F)cc2)c(-c2ccncc2)c1CCCc1ccccc1 [Compound 4.1] | Ki | µM | 2.3 |
| Fc1ccc(-c2sc(-c3c(F)c(F)nc(F)c3F)cc2-c2ccncc2)cc1 [Compound 5.19] | Ki | µM | 3.01 |
| O=C(O)c1cc(-c2ccncc2)c(-c2ccc(F)cc2)s1 [Compound 5.12] | Ki | µM | 17 |
| O=C(c1ccccc1)c1cc(-c2ccncc2)c(-c2ccc(F)cc2)s1 [Compound 5.16] | Ki | µM | 5 |
| Nc1nc(F)c(F)c(-c2cc(-c3ccncc3)c(-c3ccc(F)cc3)s2)c1F [Compound 5.20] | Ki | µM | 0.66 |
| Fc1ccc(-c2sccc2-c2ccncc2)cc1 [Compound 3.2] | Ki | µM | 5 |
| NCCC#Cc1cc(-c2ccncc2)c(-c2ccc(F)cc2)s1 [Compound 5.7] | Ki | µM | 1.1 |
| O=C(NCCO)c1cccc(-c2c(C#CCCO)sc(-c3ccc(F)cc3)c2-c2ccncc2)c1 [Compound 3.37] | Ki | µM | 1.9 |
| Fc1ccc(-c2sc(C#CCCN3CCOCC3)cc2-c2ccncc2)cc1 [Compound 5.8] | Ki | µM | 2.2 |
| OC(CCc1ccccc1)c1csc(-c2ccc(F)cc2)c1-c1ccncc1 (stereo not shown) [Compound 4.17] | Ki | µM | 1.9 |

1. O=C(c1cc(-c2ccncc2)c(-c2ccc(F)cc2)s1)N1CCNCC1 [Compound 5.14]
2. OCCCC#Cc1cc(-c2ccncc2)c(-c2ccc(F)cc2)s1 [Compound 5.3]
# returns the entry with the larger Ki; inputs 1 and 2 Write the label of whichever entry you select. 1
(1: 6.3 µM, 2: 1.7 µM)

1. CC(=O)Nc1cccc(-c2c(C#CCCO)sc(-c3ccc(F)cc3)c2-c2ccncc2)c1 [Compound 3.41]
2. O=C(c1ccco1)c1cc(-c2ccncc2)c(-c2ccc(F)cc2)s1 [Compound 5.17]
Of the pair 1 and 2 , name the member with the lesser recorded Ki. Write the label of whichever entry you select. 1
(1: 2.6 µM, 2: 5.9 µM)
